Data origin: the supplement of paper PMC13380429

- System: Vero E6
- ASSAY_COMMENT: cell viability relative to DMSO; higher = less toxic
- SETTINGS: 72 h; 1 nM
READOUT: cell viability (%)
Numeric only. Scale: %

Check out these entries, answers already filled in.
INSERT INTO results (compound, test_value) VALUES
  ('CCOc1ccc(S(=O)(=O)O)c2cccnc12', 95.4),
  ('O=C(CCCN1CCC(n2c(=O)[nH]c3ccccc32)CC1)c1ccc(F)cc1', 105),
  ('O=C(NC(Cc1cc(=O)[nH]c2ccccc12)C(=O)O)c1ccc(Cl)cc1 (stereo not given) [rebamipide]', 101),
  ('CNCc1cc(-c2ccccc2F)n(S(=O)(=O)c2cccnc2)c1', 103);

Could you now look at the following compound, please?
Data request: Quick one: cell viability for CCOC(=O)c1ccc(C#Cc2ccc3c(c2)C(C)(C)CCS3)nc1 ?
Data returned: 101
